Attribution: patent US20110318768A1

# System: tyrosine kinase in cell membrane fraction of UACC893
# protocolSummary: Tyrosine kinase activity inhibition rate in cell membrane fraction (Poly-Glu4-Tyr substrate)
# Format: biochemical
# testSettings: UACC893; 25 μM kinase inhibitor, 25 μM ATP
Below, each entry is listed alongside its reported Inhibition rate.
Numbers only here, please. The scale is %.

> print(dat)
                                 itemsmiles  measuredattribute  unitstext  resultnumber
1  Cc1[nH]c(/C=C2\C(=O)Nc3ccc(S(=O)(=O)N(C)c4cccc(Cl)c4)cc32)c(C)c1C(=O)N1CCN(C)CC1    Inhibition rate          %          56.9
2  COc1cc2ncnc(Nc3ccc(OCc4ccccc4)cc3)c2cc1OC    Inhibition rate          %          22.9
3  Cc1cc(F)c(Nc2ncnc3cc(OCc4ccccc4)ccc23)cc1O.Cl    Inhibition rate          %           3.3
4  CCCNC(=O)Nc1ccc(Oc2ncnc3cc(OC)c(OC)cc23)cc1Cl    Inhibition rate          %          23.9
5  COc1cc2c(cc1OC)-c1[nH]nc(Nc3cccc(F)c3)c1C2    Inhibition rate          %          28.0
6  COc1cc2ncnc(Nc3ccc(Oc4ccccc4)cc3)c2cc1OC    Inhibition rate          %          25.6

Attention now turns to another entry.
Item under review: CS(=O)(=O)CCNCc1nc(-c2ccc3ncnc(Nc4ccc(OCc5cccc(F)c5)c(Cl)c4)c3c2)cs1.Cl.Cl . Reported Inhibition rate?
48.4
